assay.protocol: Cytotoxicity against human A549 cells assessed as reduction in cell viability by MTT assay
Type: cell-based
Recorded measurements of CC50, one per entry

mol	CC50
CCOC(=O)[C@]12CC[C@@H](C)[C@H](C)[C@H]1C1=CC[C@@H]3[C@@]4(C)CC[C@@H](O[C@@H]5O[C@H](CO)[C@@H](O[C@@H]6O[C@@H](C)[C@H](O)[C@@H](O)[C@H]6O)[C@H](O)[C@H]5O[C@@H]5O[C@@H](C)[C@H](O)[C@@H](O)[C@H]5O)C(C)(C)[C@@H]4CC[C@@]3(C)[C@]1(C)CC2	375 µM
CNC(=O)[C@]12CC[C@@H](C)[C@H](C)[C@H]1C1=CC[C@@H]3[C@@]4(C)CC[C@@H](O[C@@H]5O[C@H](CO)[C@@H](O[C@@H]6O[C@@H](C)[C@H](O)[C@@H](O)[C@H]6O)[C@H](O)[C@H]5O[C@@H]5O[C@@H](C)[C@H](O)[C@@H](O)[C@H]5O)C(C)(C)[C@@H]4CC[C@@]3(C)[C@]1(C)CC2	> 1000 µM
C[C@H]1[C@H](C)CC[C@]2(C(=O)N(C)C)CC[C@]3(C)C(=CC[C@@H]4[C@@]5(C)CC[C@@H](O[C@@H]6O[C@H](CO)[C@@H](O[C@@H]7O[C@@H](C)[C@H](O)[C@@H](O)[C@H]7O)[C@H](O)[C@H]6O[C@@H]6O[C@@H](C)[C@H](O)[C@@H](O)[C@H]6O)C(C)(C)[C@@H]5CC[C@]43C)[C@H]12	> 1000 µM

----------
assay.protocol: in vitro
experimental.setup: human, A549 cells
Recorded measurements of selectivity ratio, one per entry

mol	selectivity ratio
C[C@H]1[C@H](C)CC[C@]2(C(=O)N(C)C)CC[C@]3(C)C(=CC[C@@H]4[C@@]5(C)CC[C@@H](O[C@@H]6O[C@H](CO)[C@@H](O[C@@H]7O[C@@H](C)[C@H](O)[C@@H](O)[C@H]7O)[C@H](O)[C@H]6O[C@@H]6O[C@@H](C)[C@H](O)[C@@H](O)[C@H]6O)C(C)(C)[C@@H]5CC[C@]43C)[C@H]12	> 119
CNC(=O)[C@]12CC[C@@H](C)[C@H](C)[C@H]1C1=CC[C@@H]3[C@@]4(C)CC[C@@H](O[C@@H]5O[C@H](CO)[C@@H](O[C@@H]6O[C@@H](C)[C@H](O)[C@@H](O)[C@H]6O)[C@H](O)[C@H]5O[C@@H]5O[C@@H](C)[C@H](O)[C@@H](O)[C@H]5O)C(C)(C)[C@@H]4CC[C@@]3(C)[C@]1(C)CC2	> 81.7
CCCCCOC(=O)[C@]12CC[C@@H](C)[C@H](C)[C@H]1C1=CC[C@@H]3[C@@]4(C)CC[C@@H](O[C@@H]5O[C@H](CO)[C@@H](O[C@@H]6O[C@@H](C)[C@H](O)[C@@H](O)[C@H]6O)[C@H](O)[C@H]5O[C@@H]5O[C@@H](C)[C@H](O)[C@@H](O)[C@H]5O)C(C)(C)[C@@H]4CC[C@@]3(C)[C@]1(C)CC2	16.7

----------
assay.protocol: Cytotoxicity against human A549 cells assessed as reduction in cell viability by MTT assay
Type: cell-based
Recorded measurements of CC50, one per entry
measurement.name: CC50 (µM)

mol	unit.of.measurement	reported.relation	experimental.result
C[C@H]1[C@H](C)CC[C@]2(C(=O)NC3CCCC3)CC[C@]3(C)C(=CC[C@@H]4[C@@]5(C)CC[C@@H](O[C@@H]6O[C@H](CO)[C@@H](O[C@@H]7O[C@@H](C)[C@H](O)[C@@H](O)[C@H]7O)[C@H](O)[C@H]6O[C@@H]6O[C@@H](C)[C@H](O)[C@@H](O)[C@H]6O)C(C)(C)[C@@H]5CC[C@]43C)[C@H]12	µM	>	1000
C[C@H]1[C@H](C)CC[C@]2(C(=O)O)CC[C@]3(C)C(=CC[C@@H]4[C@@]5(C)CC[C@@H](O[C@@H]6O[C@H](CO)[C@@H](O[C@@H]7O[C@@H](C)[C@H](O)[C@@H](O)[C@H]7O)[C@H](O)[C@H]6O[C@@H]6O[C@@H](C)[C@H](O)[C@@H](O)[C@H]6O)C(C)(C)[C@@H]5CC[C@]43C)[C@H]12	µM	=	283
C[C@H]1[C@H](C)CC[C@]2(C(=O)OC3CCCC3)CC[C@]3(C)C(=CC[C@@H]4[C@@]5(C)CC[C@@H](O[C@@H]6O[C@H](CO)[C@@H](O[C@@H]7O[C@@H](C)[C@H](O)[C@@H](O)[C@H]7O)[C@H](O)[C@H]6O[C@@H]6O[C@@H](C)[C@H](O)[C@@H](O)[C@H]6O)C(C)(C)[C@@H]5CC[C@]43C)[C@H]12	µM	=	524

----------
Recorded measurements of selectivity ratio, one per entry
assay.protocol: in vitro
experimental.setup: human, A549 cells

molecule	reported.relation	selectivity ratio
C[C@H]1[C@H](C)CC[C@]2(C(=O)OC3CCCC3)CC[C@]3(C)C(=CC[C@@H]4[C@@]5(C)CC[C@@H](O[C@@H]6O[C@H](CO)[C@@H](O[C@@H]7O[C@@H](C)[C@H](O)[C@@H](O)[C@H]7O)[C@H](O)[C@H]6O[C@@H]6O[C@@H](C)[C@H](O)[C@@H](O)[C@H]6O)C(C)(C)[C@@H]5CC[C@]43C)[C@H]12	=	12.9
COC(=O)[C@]12CC[C@@H](C)[C@H](C)[C@H]1C1=CC[C@@H]3[C@@]4(C)CC[C@@H](O[C@@H]5O[C@H](CO)[C@@H](O[C@@H]6O[C@@H](C)[C@H](O)[C@@H](O)[C@H]6O)[C@H](O)[C@H]5O[C@@H]5O[C@@H](C)[C@H](O)[C@@H](O)[C@H]5O)C(C)(C)[C@@H]4CC[C@@]3(C)[C@]1(C)CC2	=	22.1
NC(=O)c1ncn([C@@H]2O[C@H](CO)[C@@H](O)[C@H]2O)n1 [RIBAVIRIN]	=	2.7
C[C@H]1[C@H](C)CC[C@]2(C(=O)NC3CCCC3)CC[C@]3(C)C(=CC[C@@H]4[C@@]5(C)CC[C@@H](O[C@@H]6O[C@H](CO)[C@@H](O[C@@H]7O[C@@H](C)[C@H](O)[C@@H](O)[C@H]7O)[C@H](O)[C@H]6O[C@@H]6O[C@@H](C)[C@H](O)[C@@H](O)[C@H]6O)C(C)(C)[C@@H]5CC[C@]43C)[C@H]12	>	54.1
C[C@H]1[C@H](C)CC[C@]2(C(=O)Nc3ccccc3)CC[C@]3(C)C(=CC[C@@H]4[C@@]5(C)CC[C@@H](O[C@@H]6O[C@H](CO)[C@@H](O[C@@H]7O[C@@H](C)[C@H](O)[C@@H](O)[C@H]7O)[C@H](O)[C@H]6O[C@@H]6O[C@@H](C)[C@H](O)[C@@H](O)[C@H]6O)C(C)(C)[C@@H]5CC[C@]43C)[C@H]12	>	29.6
CCOC(=O)[C@]12CC[C@@H](C)[C@H](C)[C@H]1C1=CC[C@@H]3[C@@]4(C)CC[C@@H](O[C@@H]5O[C@H](CO)[C@@H](O[C@@H]6O[C@@H](C)[C@H](O)[C@@H](O)[C@H]6O)[C@H](O)[C@H]5O[C@@H]5O[C@@H](C)[C@H](O)[C@@H](O)[C@H]5O)C(C)(C)[C@@H]4CC[C@@]3(C)[C@]1(C)CC2	=	20.7
C[C@H]1[C@H](C)CC[C@]2(C(=O)O)CC[C@]3(C)C(=CC[C@@H]4[C@@]5(C)CC[C@@H](O[C@@H]6O[C@H](CO)[C@@H](O[C@@H]7O[C@@H](C)[C@H](O)[C@@H](O)[C@H]7O)[C@H](O)[C@H]6O[C@@H]6O[C@@H](C)[C@H](O)[C@@H](O)[C@H]6O)C(C)(C)[C@@H]5CC[C@]43C)[C@H]12	=	5.8

Reference source: ChEMBL document CHEMBL4699479
